FYI, the data here is from ChEMBL document CHEMBL5291721.

biological target: Vasopressin V2 receptor (Homo sapiens, UniProt P30518); also: assay procedure not described here
Sequence (P30518 whole entry): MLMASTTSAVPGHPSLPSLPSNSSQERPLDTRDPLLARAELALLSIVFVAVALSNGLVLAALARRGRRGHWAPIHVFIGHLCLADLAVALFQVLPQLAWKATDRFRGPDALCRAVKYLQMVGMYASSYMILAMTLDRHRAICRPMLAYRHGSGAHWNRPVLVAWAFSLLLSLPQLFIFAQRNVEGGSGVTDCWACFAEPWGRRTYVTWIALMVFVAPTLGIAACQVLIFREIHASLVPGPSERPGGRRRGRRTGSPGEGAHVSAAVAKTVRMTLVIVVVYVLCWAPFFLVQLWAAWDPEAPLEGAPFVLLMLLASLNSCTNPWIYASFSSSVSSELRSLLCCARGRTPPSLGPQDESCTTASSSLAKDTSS
endpoint.name: AC50

CN(Cc1ccc(C(C)(C)C)cc1)Cc1cccc2ccccc12    > 10 µM

Query :: Give the reported value of AC50 for this record: `CCCCC[C@H](O)CC[C@@H]1[C@H]2Cc3cccc(OCC(=O)O)c3C[C@H]2C[C@H]1O`
Result :: > 30 µM

Query :: Give the reported value of AC50 for this record: `N=C(N)NC(=O)Cc1c(Cl)cccc1Cl`
Result :: > 30 µM

Query :: Give the reported value of AC50 for this record: CCC(=O)[C@@]1(C)[C@H](C)C[C@H]2[C@@H]3CCC4=CC(=O)C=C[C@]4(C)[C@H]3[C@@H](O)C[C@@]21C [RIMEXOLONE]
Result :: > 10 µM

Query :: Give the reported value of AC50 for this record: `CN(C)CCc1c[nH]c2ccc(CS(=O)(=O)N3CCCC3)cc12`
Result :: > 30 µM

###

// values below are AC50; system is 5-hydroxytryptamine receptor 2C (Homo sapiens, UniProt P28335); also: assay procedure not described here
Sequence (P28335 whole entry): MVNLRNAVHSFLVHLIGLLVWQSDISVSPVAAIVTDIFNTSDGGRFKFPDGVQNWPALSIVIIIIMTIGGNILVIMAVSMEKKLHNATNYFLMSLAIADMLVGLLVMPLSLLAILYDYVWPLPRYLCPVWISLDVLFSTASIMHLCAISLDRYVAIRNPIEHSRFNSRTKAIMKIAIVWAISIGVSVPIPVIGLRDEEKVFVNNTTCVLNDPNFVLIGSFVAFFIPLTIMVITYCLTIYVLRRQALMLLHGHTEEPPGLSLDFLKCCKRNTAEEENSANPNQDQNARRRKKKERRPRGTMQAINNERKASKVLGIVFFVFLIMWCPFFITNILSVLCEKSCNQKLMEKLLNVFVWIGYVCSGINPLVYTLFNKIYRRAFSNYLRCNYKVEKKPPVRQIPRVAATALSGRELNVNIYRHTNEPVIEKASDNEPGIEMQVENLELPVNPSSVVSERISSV

NCC1(CC(=O)O)CCCCC1    > 30 µM
C=C(c1ccccc1OCc1cccc(Cl)c1)n1ccnc1    18 µM
CCC1(c2ccccc2)C(=O)NCNC1=O    > 30 µM
c1cnc2cc3c(cc2n1)[C@@H]1CNC[C@H]3C1    > 30 µM
N[C@@H](Cc1cc(I)c(Oc2cc(I)c(O)c(I)c2)c(I)c1)C(=O)O    > 30 µM

Pending compound:
Query :: Give the reported value of AC50 for this record: `CCC[C@@]1(CCc2ccccc2)CC(O)=C([C@H](CC)c2cccc(NS(=O)(=O)c3ccc(C(F)(F)F)cn3)c2)C(=O)O1`
Result :: > 30 µM

###

// values below are AC50; system is Muscarinic acetylcholine receptor M1 (Homo sapiens); also: assay procedure not described here
Sequence (P11229 whole entry): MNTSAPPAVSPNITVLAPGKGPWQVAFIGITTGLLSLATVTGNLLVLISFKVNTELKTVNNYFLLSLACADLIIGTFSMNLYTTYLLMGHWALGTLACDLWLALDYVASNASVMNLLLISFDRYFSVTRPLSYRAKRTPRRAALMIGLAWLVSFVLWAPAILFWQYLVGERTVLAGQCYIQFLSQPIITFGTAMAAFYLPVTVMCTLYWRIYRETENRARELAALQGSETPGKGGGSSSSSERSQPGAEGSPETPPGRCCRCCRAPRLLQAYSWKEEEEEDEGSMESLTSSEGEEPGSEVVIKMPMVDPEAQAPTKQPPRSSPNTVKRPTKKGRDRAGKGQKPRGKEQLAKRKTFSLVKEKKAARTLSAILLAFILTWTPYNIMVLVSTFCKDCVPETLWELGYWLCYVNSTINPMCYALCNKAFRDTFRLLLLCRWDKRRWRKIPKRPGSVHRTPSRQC

Consider the reported AC50 for these compounds:
O=C(O)[C@@H](S)[C@@H](S)C(=O)O    > 30 µM
CC(=O)Nc1ccc(/C=N/NC(N)=S)cc1    > 30 µM
COc1cc(C(=O)NCc2ccc(OCCN(C)C)cc2)cc(OC)c1OC [TRIMETHOBENZAMIDE]    > 30 µM
C[C@H](Nc1ncnc2[nH]cnc12)c1cc2cccc(Cl)c2c(=O)n1-c1ccccc1    > 30 µM
OC(CN1CCCCC1)c1cc(-c2ccccc2)on1 (stereo unspecified)    20.4 µM

Query :: Please look at `C[C@@H](O)[C@H]1C(=O)N2C(C(=O)O)=C(S[C@@H]3CN[C@H](C(=O)Nc4cccc(C(=O)O)c4)C3)[C@H](C)[C@H]12` and tell me its recorded AC50 on Muscarinic acetylcholine receptor M1 (Homo sapiens).
Result :: > 30 µM

Query :: Please look at `O=C(Cc1cccs1)N[C@@H]1C(=O)N2C(C(=O)[O-])=C(C[n+]3ccccc3)CS[C@H]12` and tell me its recorded AC50 on Muscarinic acetylcholine receptor M1 (Homo sapiens).
Result :: > 30 µM

Query :: Please look at `CC#CC(=O)N1CCC[C@H]1c1nc(-c2ccc(C(=O)Nc3ccccn3)cc2)c2c(N)nccn12` and tell me its recorded AC50 on Muscarinic acetylcholine receptor M1 (Homo sapiens).
Result :: > 30 µM

Query :: Please look at `CSCC[C@H](N)C(=O)O` and tell me its recorded AC50 on Muscarinic acetylcholine receptor M1 (Homo sapiens).
Result :: > 30 µM

Query :: Please look at `CCCCCCO[C@@H](C)c1cccc(-c2csc(NC(=O)c3cc(Cl)c(/C=C(\C)C(=O)O)c(Cl)c3)n2)c1OC` and tell me its recorded AC50 on Muscarinic acetylcholine receptor M1 (Homo sapiens).
Result :: > 30 µM

Query :: Please look at `C#CCN(C)Cc1ccccc1` and tell me its recorded AC50 on Muscarinic acetylcholine receptor M1 (Homo sapiens).
Result :: > 30 µM
